Numbers sourced from ChEMBL document CHEMBL1687854.

Assay: Terminal half life in end stage renal disease patient undergoing 12 hours continuous venovenous hemodiafiltration at 500 mg, iv
Type: ADME, organism-based
Conditions: human, in vivo, read-out: beta t1/2 (converted)
READOUT: half-life (h)
Expressed in h, but write only the number.

Input: Item under review: "C[C@@H](O)[C@H]1C(=O)N2C(C(=O)O)=C(S[C@@H]3CN[C@H](CNS(N)(=O)=O)C3)[C@H](C)[C@H]12" . Reported half-life?
Output: 3.87

###

Assay: Renal clearance in healthy human at 500 mg, iv
Assay type: ADME, organism-based, Kidney
Settings: in vivo, read-out: CL_renal (converted)
READOUT: CL renal
Answer with the number, then the unit.

Input: Item under review: C[C@@H](O)[C@H]1C(=O)N2C(C(=O)O)=C(S[C@@H]3CN[C@H](CNS(N)(=O)=O)C3)[C@H](C)[C@H]12 [DORIPENEM] . Reported CL renal?
Output: 153 mL/min
